Target: CDK2/CycE (Homo sapiens, UniProt P24941)
Assay: CDK2/CycE kinase assay (TR-FRET, 2 mM ATP)
Conditions: 2 mM ATP (high ATP); median; read-out: CDK2/CyclinE, 2 mM ATP (high ATP), IC50 (median)
pIC50: −log10 of the molar value.
Measured pIC50, listed per entry for reference.
measurement.type: pIC50

>>> df
                                   compound  measurement_type  limit_qualifier  assay_result
0  Fc1cccc2[nH]c(CNc3nc(N4CCNCC4)nc4c(C5CC5)cnn34)nc12 [Example 182]             pIC50                <          4.70
1  Cc1cc2nc(CNc3nc(N4CC5CCC(C4)N5)nc4c(C5CC5)cnn34)[nH]c2cc1C [Example 326]             pIC50                =          5.38
2  Cc1ccc2[nH]c(CNc3nc(N4C[C@@H](C)N[C@@H](C)C4)nc4c(Br)cnn34)nc2c1 [Example 209]             pIC50                <          4.70
3  COc1ccc2[nH]c(CNc3nc(N4C[C@@H](C)N[C@@H](C)C4)nc4c(Br)cnn34)nc2c1 [Example 205]             pIC50                <          4.70
4  Fc1c(Cl)ccc2[nH]c(CNc3nc(N4CCOCC4)nc4c(Br)cnn34)nc12 [Example 372]             pIC50                =          5.44
5  CN(CC(C)(C)O)c1nc(NCc2nc3c(F)c(Cl)ccc3[nH]2)n2ncc(C3CC3)c2n1 [Example 387]             pIC50                =          5.27
6  Brc1cnn2c(NCc3nc4ccccc4[nH]3)nc(N3C[C@H]4CC[C@@H]3CO4)nc12 (single isomer, unassigned; enantiomer 2) [Example 391]             pIC50                =          5.31

* * *

# DC50 annotations
Target: CDK12 (nuclear staining in CAL-120 cells) (Homo sapiens, UniProt Q9NYV4)
Construct: endogenous in cells; host or cells: CAL-120 human breast cancer cells (DSMZ ACC 459)
Sequence (Q9NYV4 whole entry): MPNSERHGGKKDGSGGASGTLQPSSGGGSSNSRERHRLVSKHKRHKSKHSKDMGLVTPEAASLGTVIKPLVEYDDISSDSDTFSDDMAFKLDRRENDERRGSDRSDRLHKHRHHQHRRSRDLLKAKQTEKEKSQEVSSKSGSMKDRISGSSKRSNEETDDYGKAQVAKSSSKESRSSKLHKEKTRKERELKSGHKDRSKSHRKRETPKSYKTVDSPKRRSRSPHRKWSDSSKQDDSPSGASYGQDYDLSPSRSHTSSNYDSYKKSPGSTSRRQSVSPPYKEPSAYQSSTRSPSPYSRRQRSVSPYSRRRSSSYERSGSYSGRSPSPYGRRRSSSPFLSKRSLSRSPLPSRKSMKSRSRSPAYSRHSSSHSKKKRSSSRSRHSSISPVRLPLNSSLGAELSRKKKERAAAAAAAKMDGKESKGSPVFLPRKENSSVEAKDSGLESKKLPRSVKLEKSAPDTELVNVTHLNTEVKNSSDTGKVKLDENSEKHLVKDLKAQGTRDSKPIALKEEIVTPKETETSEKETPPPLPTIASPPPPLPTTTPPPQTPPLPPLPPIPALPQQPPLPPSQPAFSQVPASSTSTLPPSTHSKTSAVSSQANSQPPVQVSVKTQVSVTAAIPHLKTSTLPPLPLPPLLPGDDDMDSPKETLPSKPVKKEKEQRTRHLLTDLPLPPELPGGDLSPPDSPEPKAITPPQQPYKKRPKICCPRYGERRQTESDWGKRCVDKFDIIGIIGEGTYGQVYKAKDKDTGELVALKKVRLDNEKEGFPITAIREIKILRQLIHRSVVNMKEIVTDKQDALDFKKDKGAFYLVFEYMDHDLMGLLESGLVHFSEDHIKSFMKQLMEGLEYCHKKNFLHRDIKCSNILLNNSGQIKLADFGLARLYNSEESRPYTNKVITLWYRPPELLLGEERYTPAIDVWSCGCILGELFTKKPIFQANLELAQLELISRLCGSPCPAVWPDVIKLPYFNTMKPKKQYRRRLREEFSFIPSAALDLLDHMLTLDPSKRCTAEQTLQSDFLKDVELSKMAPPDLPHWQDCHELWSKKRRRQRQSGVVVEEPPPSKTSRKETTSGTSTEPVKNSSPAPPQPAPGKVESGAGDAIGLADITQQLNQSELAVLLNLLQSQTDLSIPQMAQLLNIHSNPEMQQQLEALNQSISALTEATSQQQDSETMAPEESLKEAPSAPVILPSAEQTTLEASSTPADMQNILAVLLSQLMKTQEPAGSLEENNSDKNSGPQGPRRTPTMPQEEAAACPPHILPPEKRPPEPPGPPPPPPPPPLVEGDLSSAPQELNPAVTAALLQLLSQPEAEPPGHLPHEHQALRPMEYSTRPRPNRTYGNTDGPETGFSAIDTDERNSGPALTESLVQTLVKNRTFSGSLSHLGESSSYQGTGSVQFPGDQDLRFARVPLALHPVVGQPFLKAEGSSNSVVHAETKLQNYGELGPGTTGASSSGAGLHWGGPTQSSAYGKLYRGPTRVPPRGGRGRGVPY
Sequence (O75909 whole entry partner): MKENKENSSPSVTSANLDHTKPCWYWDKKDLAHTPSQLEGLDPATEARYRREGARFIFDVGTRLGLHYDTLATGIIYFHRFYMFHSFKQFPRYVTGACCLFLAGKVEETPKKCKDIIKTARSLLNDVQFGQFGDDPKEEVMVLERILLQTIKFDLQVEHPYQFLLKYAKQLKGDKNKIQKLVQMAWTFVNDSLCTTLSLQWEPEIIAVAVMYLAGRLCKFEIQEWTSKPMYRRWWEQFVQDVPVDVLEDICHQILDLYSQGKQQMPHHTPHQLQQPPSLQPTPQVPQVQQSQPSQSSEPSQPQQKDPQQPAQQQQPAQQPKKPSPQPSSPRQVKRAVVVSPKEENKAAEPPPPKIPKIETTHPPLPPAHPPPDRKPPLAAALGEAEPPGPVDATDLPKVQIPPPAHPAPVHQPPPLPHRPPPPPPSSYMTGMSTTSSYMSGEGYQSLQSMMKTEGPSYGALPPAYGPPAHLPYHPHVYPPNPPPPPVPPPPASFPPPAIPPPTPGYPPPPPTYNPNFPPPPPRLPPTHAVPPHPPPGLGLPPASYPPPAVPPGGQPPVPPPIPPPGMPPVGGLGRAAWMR
Experiment: CDK12 nuclear protein level: immunofluorescence/high content analysis (CAL-120)
Type: cell-based
Conditions: CAL-120 cells, 24 h, immunofluorescence; 50% reduction of nuclear CDK12 staining intensity; median; read-out: CDK12 degradation IF, DC50- [mol/l] (median)
measurement.type: DC50 (nM)

>>> df
                                    compound  assay_result
 0  FC(F)(F)c1ccc2[nH]c(CNc3nc(N4CCOCC4)nc4c(Br)cnn34)nc2c1          7.59
 1  CC(C)c1cnn2c(NCc3ncc(-c4ccccc4)[nH]3)nc(N(C)CC(C)(C)O)nc12          27.3
 2  Cc1cccc2[nH]c(CNc3nc(N4CCOCC4)nc4c(Br)cnn34)nc12          1.31
 3  C[C@@H]1CN(c2nc(NCc3nnc(-c4ccccc4)[nH]3)n3ncc(Br)c3n2)CCN1C.O=CO [Example 130, formate]          3.31
 4  C[C@@H]1CN(c2nc(NCc3nc4c(F)cccc4[nH]3)n3ncc(Br)c3n2)C[C@H](C)O1          1.09
 5  Brc1cnn2c(NCc3nnc(-c4ccccc4)[nH]3)nc(N3CCNCC3)nc12.O=CO [Example 119, formate]          1.54
 6  Fc1ccc2[nH]c(CNc3nc(N4C[C@@H]5CCCN[C@@H]5C4)nc4c(C5CC5)cnn34)nc2c1F             2
 7  Cc1ccc2[nH]c(CNc3nc(N4C[C@@H](C)N[C@@H](C)C4)nc4c(Br)cnn34)nc2c1         0.471
 8  CN1CCN(c2nc(NCc3nc4c(F)cccc4[nH]3)n3ncc(C(F)(F)F)c3n2)CC1          1.71
 9  Fc1cc(F)cc(-c2nnc(CNc3nc(N4CCOCC4)nc4c(Br)cnn34)[nH]2)c1          2.49
10  OC[C@@H]1CCCCN1c1nc(NCc2nc3c(F)cccc3[nH]2)n2ncc(C3CC3)c2n1         0.557
11  CC(C)(O)CNc1nc(NCc2nc3ccccc3[nH]2)n2ncc(Br)c2n1          6.38
12  CN(C)C1CCN(c2nc(NCc3nc4ccccc4[nH]3)n3ncc(Br)c3n2)CC1          61.3
13  Brc1cnn2c(NCc3nc4ccccc4[nH]3)nc(N3CCC4(CCCN4)C3)nc12 (stereo not shown)          7.88
14  CC(C)c1cnn2c(NCc3nnc(-c4ccccc4)[nH]3)nc(N(C)CC(C)(C)O)nc12          41.4
15  FC1(F)CC1c1cnn2c(NCc3nc4ccccc4[nH]3)nc(N3CCOCC3)nc12 (stereo not shown)          4.72

* * *

Below, each entry is listed alongside its reported (IC50 CDK12 high ATP) to (Degradation DC50 CDK12) ratio.
Molecular target: CDK12 (nuclear staining in CAL-120 cells) (Homo sapiens)
Construct: endogenous in cells; host or cells: CAL-120 human breast cancer cells (DSMZ ACC 459)
Experiment: CDK12 nuclear protein level: immunofluorescence/high content analysis (CAL-120)
Assay type: cell-based
Settings: ratio of IC50 CDK12 high ATP kinase assay to DC50 CDK12 degradation (IF, CAL-120)
measurement.type: (IC50 CDK12 high ATP) to (Degradation DC50 CDK12) ratio

>>> print(df.to_string())
                                    compound                         target_under_test  limit_qualifier  assay_result
 0  Clc1cc2nc(CNc3nc(N4CCOCC4)nc4c(Br)cnn34)[nH]c2cc1Cl  CDK12 (nuclear staining in CAL-120 cells) (Homo sapiens)                =            73
 1  FC(F)(F)Oc1cccc2[nH]c(CNc3nc(N4C[C@H]5CC[C@@H](C4)N5)nc4c(Br)cnn34)nc12  CDK12 (nuclear staining in CAL-120 cells) (Homo sapiens)                =           266
 2  Cn1cc(-c2cnn3c(NCc4nc5c(F)c(F)ccc5[nH]4)nc(N4CCOCC4)nc23)cn1  CDK12 (nuclear staining in CAL-120 cells) (Homo sapiens)                >           513
 3  c1ccc(-c2cnn3c(NCc4nc5ccccc5[nH]4)nc(N4CCOCC4)nc23)cc1  CDK12 (nuclear staining in CAL-120 cells) (Homo sapiens)                >          1272
 4  Cc1cc2nc(CNc3nc(N(C)CC(C)(C)O)nc4c(C5CC5)cnn34)[nH]c2cc1C  CDK12 (nuclear staining in CAL-120 cells) (Homo sapiens)                =            67
 5  FC(F)n1cc(-c2cnn3c(NCc4nc5ccccc5[nH]4)nc(N4CCOCC4)nc23)cn1  CDK12 (nuclear staining in CAL-120 cells) (Homo sapiens)                =           397
 6  C[C@@H]1CN(c2nc(NCc3nnc(-c4ccccc4)[nH]3)n3ncc(Br)c3n2)C[C@H](C)N1  CDK12 (nuclear staining in CAL-120 cells) (Homo sapiens)                =          1905
 7  C[C@@H]1CN(c2nc(NCc3nc4ccccc4[nH]3)n3ncc(Br)c3n2)C[C@H](C)N1C  CDK12 (nuclear staining in CAL-120 cells) (Homo sapiens)                >          3658
 8  NC1(C(F)(F)F)CCN(c2nc(NCc3nc4ccccc4[nH]3)n3ncc(Br)c3n2)C1 (stereo not drawn)  CDK12 (nuclear staining in CAL-120 cells) (Homo sapiens)                =            66
 9  Fc1cccc(-c2cnn3c(NCc4nc5ccccc5[nH]4)nc(N4CCOCC4)nc23)c1  CDK12 (nuclear staining in CAL-120 cells) (Homo sapiens)                >           133
10  O[C@H]1C[C@@H](Nc2nc(NCc3nc4ccccc4[nH]3)n3ncc(Br)c3n2)C1  CDK12 (nuclear staining in CAL-120 cells) (Homo sapiens)                =           472
11  Fc1c(Cl)ccc2[nH]c(CNc3nc(N4CCOCC4)nc4c(Br)cnn34)nc12  CDK12 (nuclear staining in CAL-120 cells) (Homo sapiens)                =           110
12  N#Cc1cnn2c(NCc3nc4ccccc4[nH]3)nc(N3CCOCC3)nc12  CDK12 (nuclear staining in CAL-120 cells) (Homo sapiens)                >          1754
13  Brc1cnn2c(NCc3nc4ccccc4[nH]3)nc(N3CCN4CCC3C4)nc12 (stereo not drawn)  CDK12 (nuclear staining in CAL-120 cells) (Homo sapiens)                =          1190
14  CC1(C)CN(c2nc(NCc3nc4ccccc4[nH]3)n3ncc(Br)c3n2)CCN1  CDK12 (nuclear staining in CAL-120 cells) (Homo sapiens)                >          1386
15  COC(C)(C)COc1nc(NCc2nc3ccccc3[nH]2)n2ncc(Br)c2n1  CDK12 (nuclear staining in CAL-120 cells) (Homo sapiens)                >           464
16  CN1CCN(c2nc(NCc3nc4c(F)cccc4[nH]3)n3ncc(C(F)(F)F)c3n2)CC1  CDK12 (nuclear staining in CAL-120 cells) (Homo sapiens)                =          3446
17  CN(CC1CC1)c1nc(NCc2nc3ccccc3[nH]2)n2ncc(Br)c2n1  CDK12 (nuclear staining in CAL-120 cells) (Homo sapiens)                =           106
18  NCCCc1cccc2[nH]c(CNc3nc(N4CCOCC4)nc4c(Br)cnn34)nc12.O=CO  CDK12 (nuclear staining in CAL-120 cells) (Homo sapiens)                =           210
19  CC(C)COc1nc(NCc2nc3ccccc3[nH]2)n2ncc(Br)c2n1  CDK12 (nuclear staining in CAL-120 cells) (Homo sapiens)                >           531
20  Clc1cc2nc(CNc3nc(N4CCOCC4)nc4c(-c5cscn5)cnn34)[nH]c2cc1Cl  CDK12 (nuclear staining in CAL-120 cells) (Homo sapiens)                >           524
21  CC(C)c1cnn2c(NCc3nc4ccccc4[nH]3)nc(N3CCOC[C@H]3C)nc12  CDK12 (nuclear staining in CAL-120 cells) (Homo sapiens)                =           161
22  CN(c1nc(NCc2nc3ccccc3[nH]2)n2ncc(Br)c2n1)[C@H]1C[C@H](O)C1  CDK12 (nuclear staining in CAL-120 cells) (Homo sapiens)                =           247
23  Brc1cnn2c(NCc3nc4ccccc4[nH]3)nc(N3CCC4(CCN4)CC3)nc12  CDK12 (nuclear staining in CAL-120 cells) (Homo sapiens)                =           554
24  N[C@H]1CCN(c2nc(NCc3nc4ccccc4[nH]3)n3ncc(Br)c3n2)C1  CDK12 (nuclear staining in CAL-120 cells) (Homo sapiens)                >         10636
25  Cc1ccc2[nH]c(CNc3nc(N4CCN(C)CC4)nc4c(C5CC5)cnn34)nc2c1  CDK12 (nuclear staining in CAL-120 cells) (Homo sapiens)                >         14143
26  Fc1ccc2[nH]c(CNc3nc(N4CCNCC4)nc4c(C5CC5)cnn34)nc2c1  CDK12 (nuclear staining in CAL-120 cells) (Homo sapiens)                =         11161
27  CCC1COCCN1c1nc(NCc2nc3ccccc3[nH]2)n2ncc(Br)c2n1 (stereo not drawn)  CDK12 (nuclear staining in CAL-120 cells) (Homo sapiens)                =          1517
28  CN(CC(C)(C)O)c1nc(NCc2nc3cc(C(F)(F)F)ccc3[nH]2)n2ncc(Br)c2n1  CDK12 (nuclear staining in CAL-120 cells) (Homo sapiens)                =           166
29  C[C@@H]1CN(c2nc(NCc3nnc(-c4ccccc4)[nH]3)n3ncc(Br)c3n2)C[C@H](C)O1  CDK12 (nuclear staining in CAL-120 cells) (Homo sapiens)                =           141
30  CC[C@H](CO)Nc1nc(NCc2nc3ccccc3[nH]2)n2ncc(Br)c2n1  CDK12 (nuclear staining in CAL-120 cells) (Homo sapiens)                =           516
31  Cc1ccccc1-c1cnc(CNc2nc(N3CCOCC3)nc3c(Br)cnn23)[nH]1  CDK12 (nuclear staining in CAL-120 cells) (Homo sapiens)                =          1137
32  Brc1cnn2c(NCc3nc4ccccc4[nH]3)nc(NCC3CC3)nc12  CDK12 (nuclear staining in CAL-120 cells) (Homo sapiens)                =           113
